Attribute: Ki
Biological target: human GAL3 receptor (Homo sapiens)
Construct: expressed in transfected cells
Sequence (O60755 1-368): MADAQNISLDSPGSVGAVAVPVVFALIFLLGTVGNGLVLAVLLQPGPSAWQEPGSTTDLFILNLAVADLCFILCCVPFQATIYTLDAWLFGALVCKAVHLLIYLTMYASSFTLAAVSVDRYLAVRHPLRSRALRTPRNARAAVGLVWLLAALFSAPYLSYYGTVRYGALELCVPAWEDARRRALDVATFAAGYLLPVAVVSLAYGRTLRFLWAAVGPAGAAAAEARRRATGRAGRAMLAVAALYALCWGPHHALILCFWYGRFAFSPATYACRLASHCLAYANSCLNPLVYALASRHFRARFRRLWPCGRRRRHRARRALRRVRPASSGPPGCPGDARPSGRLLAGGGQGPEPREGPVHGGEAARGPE
Assay: Radioligand binding at cloned human GAL3 receptor
Details: cloned human GAL3 receptor; indolones, Table 4a; read-out: Ki (nM) Gal3

- structure: "O=C1/C(=N\\c2ccc(Oc3ccccc3)cc2)c2ccccc2N1c1ccsc1"
  Ki: "57 nM"
- structure: "Cc1ccc(/N=C2\\C(=O)N(c3ccccc3)c3ccccc32)c(Cl)c1"
  Ki: "38 nM"
- structure: "O=C1/C(=N\\c2ccc(-c3cccc(C(F)(F)F)c3)cc2)c2ccccc2N1c1ccccc1"
  Ki: "638 nM"
- structure: "CN1C(=O)c2ccc(/N=C3\\C(=O)N(c4ccccc4)c4ccccc43)cc2C1=O"
  Ki: "138 nM"
